The reported measurements were obtained from paper PMC11488661.

Catalogue of log10 of Kd readings, one per entry.
target: eOD-GT8 (monomeric ligand) (Human immunodeficiency virus 1, …)
Reminder: these figures are log10 of reported Kd, in nM before transformation.

See these solved cases before continuing.
binder	val
g5-D78-22_CLK19 (antibody, V domains shown) VH: QVQLVQSGAEVKKPGASVKVSCKASGYTFTGYYIHWVRQAPGHGLEWLGWINPNYGAVNYARKFQGRVTLTRDTSISTAFMELQSLRSDDTAIYHCTISLAGYRWGFDYWGQGALVTVSS VL: DIQMTQSPSSLSAFVGDRVTITCQARLDIRYSLNWYQQKPGKAPNLLIYDVSNLEIGVPSRFSGSGSGTNFTFTISTLQPEDIATYYCQQYETFGPGTKVDIK	2.00
GT8-D36-3_CLK09 (antibody, V domains shown) VH: QVQLVQSGAEVKKPGASVKVSCKASGYTFTGYYMHWVRQAPGQGLEWMGWINPNSGGTNFAQKFQGRVTMTRDTSINTAYMELSRLRSDDSAVFYCARVESKIFDIWGQGTMVTVSS VL: DIQMTQSPSSLSASVGDRVTITCQTSQDISNYLNWYQQKPGKAPKLLIYDASNLETGVPSRFSGSGSGTDFTFTISSLQPEDIATYYCQQYEFFGGGTKVEIK	-0.89
g28v2-D58-8_CLK09 (antibody, V domains shown) VH: QVQLVQSGAEVKKPGASVKVSCKASGYTFTDYYLHWVRQAPGQGLEWMGWINPSTGGRNHARQFQGRVAMTRDTSISTAYMELSRLRSDDTAVYFCTPVLATFRWRFVYWGQGTLVTVSS VL: DIQMTQSPSSLSASVGDRVTITCQASQGVSNYLNWYQQKPGKAPKLLIYDVSNLETGVPSRFSGSGSGTDFTFTISSLQPEDIATYYCQQYEFFGGGTKVEIK	-0.35

So for g28v2-D46-9_CLK19 (antibody, V domains shown) VH: QVQLVQSGAEVKKPGASVRVSCKASGYTFTGYYMHWVRQAPGQGLEWMGWINPNNGGVNYAHKFQGRVTMTRDTSISTAYMELSRLRSDDTAVYYCTTALAGHGWRFDYWGQGTLVTVSS VL: DIQMTQSPSSLSAYVGDRVTITCQASQDISNYLNWYQQIPGKAPKLLIYDASNLEAGVPSRFSGSRSGADFTFTISSLQPEDIATYYCQQYATFGPGTKVDIK , the logged log10 of Kd turned out to be -1.32

log10 of Kd in this record for g5-D78-10_CLK19 (antibody, V domains shown) VH: QVQLVQSGAEVKKPGASVKVSCKASGYTFTGYFIHWVRQAPGQGLEWMGWINPSYGAVNYARKFQGRVTMTRDTSISTAYMELQRLRSDDTAIYHCTIALAGYRWGFDYWGQGALVTVSS VL: DIQMTQSPSSLSAFVGDRVTITCQARLDIRYSLNWYQQKPGKAPNLLIYDASNLETGVPSRFSGSGSGTNFTFTISTLQPEDIATYYCQQYETFGPGTKVHIK : 1.58

Short answer for g28v2-D58-4_CLK09 (antibody, V domains shown) VH: QVQLVQSGAEVKKPGASVKVSCKASGYTFIGYYIHWVRQAPGQGLEWMGWINPNRGGTNYPQKFQGRVTMTRDTSISTAYMELSRLRSDDTAVYYCALWFGEKKTFDIWGQGTMVTVSS VL: DIQMTQSPSSLSASVGDRVTITCQASQGVSNYLNWFQQKPGKALKLLIYDVSNLETGVPSRFSGSGSGTDFTFTISSLQPEDIATYYCQQYEFFGGGTKVEIK : log10 of Kd was 0.54

Notebook: g28-D78-5_CLK09 (antibody, V domains shown) VH: QLQLVQSGAEVKKPGASVKVSCKASGYTFTGYFIHWVRQAPGQGLEWMGWLNPIYGGVNYARNFQDRVTMTRDTSISTAYLELRRLKSDDTAVYYCARVAERMIFDVWGQGTMVTVSS VL: DIQMTQSPSSLSASVGDRVTIACQASQDISNYVNWYQQKPGKAPKLLIYDASNLETGVPSRFSGSGSGTDFTFTISSLQPEDIATYYCQQYEFFGGGTKVEIK , log10 of Kd read as 0.78

Reported log10 of Kd for g28v2-D46-12_CLK19 (antibody, V domains shown) VH: QVQLVQSGAEVKKPGASVKVSCKASGYTFTGYFMHWVRQAPGQGLEWMGWINPNTGGVNYSQKFQGRVTMTRDTSITTAYMELSSLRSDDTAVYFCVTALAGHGWRFDYWGQGTLVTVSS VL: DIQMTQSPSSLSASVGDRVTITCQASQDTSNYLNWYQQKPGKAPKLLIYDASNLETGVPSRFSGSGSGTDFTFTISGLQPEDIATYYCQQYETFGPGTKVDIK was -0.74

Entry g28-D78-10_CLK09 (antibody, V domains shown) VH: QLQLVQSGADVKKPGASVKVSCKASGYTFTGYFIHWVRQAPGQGLEWMGWLNPIYGGVNYARNFQGRVTMTRDTSISTAYLELRRLKSDDTAVYYCARVAERMIFDVWGQGTMVTVSS VL: DIQMTQSPSSLSASVGDRVTIACQASQDINNYVNWYQQKPGKAPKLLIYDASNLETGVPSRFSGSGSGTDFTFTISSLQPEDIATYYCQQYEFFGGGTKVEIK — recorded log10 of Kd = 1.04

The measured log10 of Kd associated with g28v2-D46-14_CLK19 (antibody, V domains shown) VH: RVQLVQSGAEVKKPGASVKVSCKASGYTFTGYYIHWVRQAPGQGLEWMGWINPNRGGTNYPQKFQGRVTMTRDTSISTASMELSRLRSDDTAVYYCALWFGEKKTFDIWGQGTMVTVSS VL: DIQLTQSPSSLSASVGGRVTITCQASQDIHNYLNWYQQKPGKAPKILIHDVSNLETGVPSRFSGSRSGTDFTFTISSLLPEDIGTYYCQQYEFFGPGTKVDIK reads 1.08
